These entries and their values trace back to patent US20210214461A1.

study_target: pre-existing anti-scFv903 antibodies in human serum H50 (human)
assay_text: competition ADA bridging ELISA
In this section, each of the binders is paired with its reported signal change in competition ELISA (% reduction in OD).
Give the number first and the unit second.

Example cases with answers are listed next.
scFv 791 (scFv) scFv: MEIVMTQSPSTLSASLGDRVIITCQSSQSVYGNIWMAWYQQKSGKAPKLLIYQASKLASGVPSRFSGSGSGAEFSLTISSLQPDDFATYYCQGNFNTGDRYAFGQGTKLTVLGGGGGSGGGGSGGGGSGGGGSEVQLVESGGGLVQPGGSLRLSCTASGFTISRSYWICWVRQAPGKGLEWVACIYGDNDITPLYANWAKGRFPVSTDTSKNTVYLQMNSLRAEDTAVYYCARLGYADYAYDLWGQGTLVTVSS	-89%
scFv 903 (scFv) scFv: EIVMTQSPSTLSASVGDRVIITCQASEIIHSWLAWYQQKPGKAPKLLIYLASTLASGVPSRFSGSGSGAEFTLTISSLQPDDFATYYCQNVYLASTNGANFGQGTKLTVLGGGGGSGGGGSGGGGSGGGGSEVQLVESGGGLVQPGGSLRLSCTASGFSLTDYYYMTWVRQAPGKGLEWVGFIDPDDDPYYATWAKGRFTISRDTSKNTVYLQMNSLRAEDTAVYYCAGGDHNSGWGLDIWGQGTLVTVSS	-89%

// returns reported signal change in competition ELISA (% reduction in OD) for input scFv 961 (scFv) scFv: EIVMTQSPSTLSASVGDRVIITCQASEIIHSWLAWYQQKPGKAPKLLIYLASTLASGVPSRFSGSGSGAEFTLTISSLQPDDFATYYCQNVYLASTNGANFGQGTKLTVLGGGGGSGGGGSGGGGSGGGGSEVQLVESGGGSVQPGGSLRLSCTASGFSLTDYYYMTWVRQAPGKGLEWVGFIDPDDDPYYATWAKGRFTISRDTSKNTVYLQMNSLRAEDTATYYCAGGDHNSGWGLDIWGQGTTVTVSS
-73%
